assayed system: T1, ScWpl1^259–647 (Wapl domain of Saccharomyces cerevisiae Wpl1), wild type (S. cerevisiae, UniProt Q99359 259-647)
T1 sequence (looked up): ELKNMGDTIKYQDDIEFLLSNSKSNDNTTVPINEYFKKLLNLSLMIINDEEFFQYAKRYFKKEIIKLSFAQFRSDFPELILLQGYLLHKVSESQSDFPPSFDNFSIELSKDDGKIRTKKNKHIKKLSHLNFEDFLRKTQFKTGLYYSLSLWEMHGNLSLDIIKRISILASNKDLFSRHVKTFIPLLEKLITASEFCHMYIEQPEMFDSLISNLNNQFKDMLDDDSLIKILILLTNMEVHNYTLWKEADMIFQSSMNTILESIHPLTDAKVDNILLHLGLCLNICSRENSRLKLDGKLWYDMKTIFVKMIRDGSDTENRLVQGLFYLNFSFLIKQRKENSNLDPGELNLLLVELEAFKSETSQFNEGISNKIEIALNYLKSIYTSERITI
experimental protocol: BLI
Field: kon. Provide a value for each of the binders that follow.
Answers are plain numbers, in M⁻¹ s⁻¹.

{"binder": "GST-tagged ScSmc3^AH L163A L166A D168A (domain or fragment, S. cerevisiae) MYIKRVIIKGFKTYRNETIIDNFSPHQNVIIGSNGSGKSNFFAAIRFVLSDDYSNLKREERQGLIHQGSGGSVMSASVEIVFHDPDHSMILPSGVLSRGDDEVTIRRTVGLKKDDYQLNDRNVTKGDIVRMLETAGFSMNNPYNIVPQGKIVALTNAKDKERAQLAEAVVGAKSFEVKLKASLKKMEETESGGSGGKVSENFEAVFERLVPRGTAKLIIHRKNDNANDHDESIDVDMDAESNESQNGKDSEIMYTGVSISVSFNSKQNEQLHVEQLSGGQKTVCAIALILAIQMVDPASFYLFDEIDAALDKQYRTAVATLLKELSKNAQFICTTFRTDMLQVADKFFRVKYENKISTVIEVNREEAIGFIRGSNKFAEV", "kon / M⁻¹ s⁻¹": 4770}

Please find the next binder below.
Query: Would you mind telling me what kon value was observed for GST-tagged ScSmc3^AH L163D L166D (domain or fragment, S. cerevisiae) MYIKRVIIKGFKTYRNETIIDNFSPHQNVIIGSNGSGKSNFFAAIRFVLSDDYSNLKREERQGLIHQGSGGSVMSASVEIVFHDPDHSMILPSGVLSRGDDEVTIRRTVGLKKDDYQLNDRNVTKGDIVRMLETAGFSMNNPYNIVPQGKIVALTNAKDKERDQLDEDVVGAKSFEVKLKASLKKMEETESGGSGGKVSENFEAVFERLVPRGTAKLIIHRKNDNANDHDESIDVDMDAESNESQNGKDSEIMYTGVSISVSFNSKQNEQLHVEQLSGGQKTVCAIALILAIQMVDPASFYLFDEIDAALDKQYRTAVATLLKELSKNAQFICTTFRTDMLQVADKFFRVKYENKISTVIEVNREEAIGFIRGSNKFAEV ?
Reply: 5880
